These entries and their values trace back to the RNAGym collection of RNA variant scans (doi:10.1101/gad.245936.114).

B1: tRNA (parent)
chain: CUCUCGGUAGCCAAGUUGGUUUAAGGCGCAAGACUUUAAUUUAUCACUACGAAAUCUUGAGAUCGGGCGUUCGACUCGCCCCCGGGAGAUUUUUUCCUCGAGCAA

# Variants of: B1
# test.protocol: nonsense suppression (GFP-seq) (ratio to wild type); higher = more function; SUP4oc tRNA, yeast GFP reporter sort-seq
Variants at the floor of the assay were thinned out.
Please mark True if the recorded nonsense suppression is equal to or greater than 0.2, and False if it falls below.

Examples with answers:
mutation.string	label
C75A C80U	True
U35C C77A G85C	False
G6U U20A C83G	False
U2A A31C A62C G78U A87U	False
C68U U71C	False
U76A C82U	False

Query variant follows.
Could you tell me if the measured nonsense suppression of G15U U35A U63C C68A reaches 0.2 or more?
False
